- METHOD_SUMMARY: Ability to inhibit rabbit liver Acyl coenzyme A:cholesterol acyltransferase 1
- Parameters: species or system Oryctolagus cuniculus
PARAMETER_MEASURED: pIC50
Numbers only, as −log10 of the molar value.

Examples from the recorded data:
If you can, please state the reported pIC50 value of `CCCCCCCCCCC(C)(C)C(=O)Nc1c(OC)ccc2c1OCCC2=O` .
7.80

Same question, `CCCCCCCCCCOc1ccc2c(c1NC(=O)C(C)(C)C)OCCC2=O` this time
7.66

Now look at this one.
If you can, please state the reported pIC50 value of CCCCCCCCCCC(C)(C)C(=O)Nc1c(OC)cc(OC)cc1OC [CL-976] .
6.83

These measurements were taken from ChEMBL document CHEMBL1128510.
